Compiled from multiple publications: pIC50 readings for L-lactate dehydrogenase A chain (Homo sapiens, UniProt P00338).
pIC50: −log10 of the molar value.

>  <molecule>
CN(C)C(=O)Cc1ccc(Cl)c(SC2=C(O)CC(c3c(Cl)cccc3Cl)CC2=O)c1 (stereo not given)

>  <target.system>
L-lactate dehydrogenase A chain (Homo sapiens, UniProt P00338)

>  <limit.operator>
=

>  <pIC50>
5.00

$$$$
>  <molecule>
Cc1occc(=O)c1OCCN1CCN(C(=O)c2ccccc2[N+](=O)[O-])CC1

>  <target.system>
L-lactate dehydrogenase A chain (Homo sapiens, UniProt P00338)

>  <limit.operator>
<

>  <pIC50>
5.00

$$$$
>  <molecule>
O=C1CC(c2c(Cl)ccc(N3CCNCC3)c2Cl)CC(O)=C1Sc1ccccc1Cl (stereo not given)

>  <target.system>
L-lactate dehydrogenase A chain (Homo sapiens, UniProt P00338)

>  <limit.operator>
=

>  <pIC50>
6.77

$$$$
>  <molecule>
Cc1cccc(C)c1C1CC(O)=C(Sc2ccccc2Cl)C(=O)O1 (stereo not given)

>  <target.system>
L-lactate dehydrogenase A chain (Homo sapiens, UniProt P00338)

>  <limit.operator>
=

>  <pIC50>
4.77

$$$$
>  <molecule>
O=C1NC(c2cccc(NCCC3CC3)n2)(c2cccc(Nc3ccc(F)c(F)c3)n2)CC(O)=C1Sc1ccccc1Cl (stereo in doubt; 41)

>  <target.system>
L-lactate dehydrogenase A chain (Homo sapiens, UniProt P00338)

>  <limit.operator>
=

>  <pIC50>
6.72

$$$$

====

L-lactate dehydrogenase A chain (Homo sapiens, UniProt P00338) pIC50, compiled from various sources.
pIC50: −log10 of the molar value.
quantity.kind: pIC50

>  <molecule>
COc1ccc(-c2cc(-c3ccc(OC)cc3)c(C#N)c(SCC(=O)Nc3ccc(C)c(C)c3)n2)cc1

>  <quantity.kind>
pIC50

>  <limit.operator>
<

>  <reported>
4.00

$$$$
>  <molecule>
CCCC(=O)N(c1ccc2oc(C)c(C(=O)OCC)c2c1)S(=O)(=O)c1ccc(OC)cc1

>  <quantity.kind>
pIC50

>  <limit.operator>
=

>  <reported>
5.46

$$$$
>  <molecule>
CC(C)Oc1ccc(Cl)c(C2CC(=O)C(Sc3cc(O)ccc3Cl)=C(O)C2)c1Cl (stereo not given)

>  <quantity.kind>
pIC50

>  <limit.operator>
=

>  <reported>
7.52

$$$$
>  <molecule>
O=C(O)CCCc1ccc(-n2cc(CCCn3cc(C4=C(c5c[nH]c6ccccc56)C(=O)NC4=O)c4ccccc43)nn2)cc1

>  <quantity.kind>
pIC50

>  <limit.operator>
=

>  <reported>
4.83

$$$$
>  <molecule>
COc1cc(/C=C/C(=O)OC[C@@]2(O)CO[C@@H](O[C@H]3[C@H](Oc4c(-c5ccc(O)c(O)c5)oc5cc(O)cc(O)c5c4=O)O[C@H](CO[C@@H]4O[C@@H](C)[C@H](O)[C@@H](O)[C@H]4O)[C@@H](O)[C@@H]3O)[C@@H]2O)cc(OC)c1O

>  <quantity.kind>
pIC50

>  <limit.operator>
<

>  <reported>
3.30

$$$$

====

A compilation of pIC50 values for L-lactate dehydrogenase A chain (Homo sapiens) from the published literature.
pIC50: −log10 of the molar value.
// criterion not met strictly below 7 in pIC50; criterion met otherwise

>  <compound>
O=C1CC(c2c(Cl)ccc(N3CCN(C4CC4)CC3)c2Cl)CC(O)=C1Sc1ccccc1Cl (stereo unspecified)

>  <label.value>
criterion not met

$$$$
>  <compound>
C[C@@H]1O[C@@H](OC[C@H]2O[C@@H](Oc3c(-c4ccc(O)c(O)c4)oc4cc(O)cc(O)c4c3=O)[C@H](O[C@@H]3OC[C@](O)(COC(=O)/C=C/c4ccc(O)cc4)[C@H]3O)[C@@H](O)[C@@H]2O)[C@H](O)[C@H](O)[C@H]1O

>  <label.value>
criterion not met

$$$$
>  <compound>
O=C1OC(c2ccsc2)(c2ccccc2O)CC(O)=C1Sc1ccccc1Cl (stereo in doubt; 16)

>  <label.value>
criterion met

$$$$
>  <compound>
COc1cc(/C=C/C(=O)OC[C@@]2(O)CO[C@@H](O[C@H]3[C@H](Oc4c(-c5ccc(O)c(O)c5)oc5cc(O)cc(O)c5c4=O)O[C@H](CO[C@@H]4O[C@@H](C)[C@H](O)[C@@H](O)[C@H]4O)[C@@H](O)[C@@H]3O)[C@@H]2O)ccc1O

>  <label.value>
criterion not met

$$$$
>  <compound>
O=C1OC2(CCc3ccccc32)CC(O)=C1Sc1ccccc1Cl (single isomer, unassigned; enantiomer B)

>  <label.value>
criterion not met

$$$$
>  <compound>
COc1cc(OC)cc(N2CCN(C(=O)COc3c(C)occc3=O)CC2)c1

>  <label.value>
criterion not met

$$$$
>  <compound>
Cc1ccccc1OC[C@H](O)Cn1c(NCc2ccccc2)nc2c1c(=O)n(C)c(=O)n2C

>  <label.value>
criterion not met

$$$$
>  <compound>
COc1ccc(Cl)c(SC2=C(O)CC(c3c(Cl)ccc(OC(C)C)c3Cl)CC2=O)c1 (stereo unspecified)

>  <label.value>
criterion met

$$$$
>  <compound>
O=C1OC(c2ccsc2)(c2cccc(Nc3ccc(F)cc3)n2)CC(O)=C1Sc1ccccc1Cl (stereo in doubt; 30)

>  <label.value>
criterion met

$$$$
>  <compound>
COc1ccc(Cl)c(SC2=C(O)CC(c3c(Cl)ccc(-c4ccncc4)c3Cl)CC2=O)c1 (stereo unspecified)

>  <label.value>
criterion met

$$$$
>  <compound>
Cn1ccc(C2CC(O)=C(Sc3ccccc3Cl)C(=O)O2)n1 (stereo unspecified)

>  <label.value>
criterion not met

$$$$
>  <compound>
Cc1occc(=O)c1OCC(=O)N1CCN(c2ccccn2)CC1

>  <label.value>
criterion not met

$$$$

====

Hi, quick share: literature IC50 data for L-lactate dehydrogenase A chain (Homo sapiens, UniProt P00338), several sources combined.
Kindly note that classification relies on IC50 with these boundaries: low (below 0.2 µM), moderate (0.2 µM to below 3 µM), high (3 µM or more)

>  <compound>
Cc1cc(C)cc(N2CCN(C(=O)COc3c(C)occc3=O)CC2)c1

>  <target.system>
L-lactate dehydrogenase A chain (Homo sapiens, UniProt P00338)

>  <label.value>
high

$$$$
>  <compound>
O=C1OC(c2ccccc2)(c2ccccn2)CC(O)=C1Sc1ccccc1Cl (stereo in doubt; 3)

>  <target.system>
L-lactate dehydrogenase A chain (Homo sapiens, UniProt P00338)

>  <label.value>
moderate

$$$$
>  <compound>
CCc1ccccc1NC(=O)CSc1nc(-c2ccc(OC)cc2)cc(-c2ccc(OC)cc2)c1C#N

>  <target.system>
L-lactate dehydrogenase A chain (Homo sapiens, UniProt P00338)

>  <label.value>
moderate

$$$$
>  <compound>
O=C1NC(c2cccc(Nc3ccc(F)c(F)c3)n2)(c2cccc(NC3CCCCC3)n2)CC(O)=C1Sc1ccccc1Cl (stereo in doubt; 35)

>  <target.system>
L-lactate dehydrogenase A chain (Homo sapiens, UniProt P00338)

>  <label.value>
low

$$$$
>  <compound>
CC(=O)Nc1cccc(C2(c3ccsc3)CC(O)=C(Sc3ccccc3Cl)C(=O)O2)c1 (racemic)

>  <target.system>
L-lactate dehydrogenase A chain (Homo sapiens, UniProt P00338)

>  <label.value>
low

$$$$
>  <compound>
O=C1OC2(CCc3c(-c4ccccc4)cccc32)CC(O)=C1Sc1ccccc1Cl (single isomer, unassigned; enantiomer A)

>  <target.system>
L-lactate dehydrogenase A chain (Homo sapiens, UniProt P00338)

>  <label.value>
low

$$$$
>  <compound>
COc1ccc(-c2cc(-c3ccc(OC)cc3)c(C#N)c(SCC(=O)Nc3c(C)cccc3C)n2)cc1

>  <target.system>
L-lactate dehydrogenase A chain (Homo sapiens, UniProt P00338)

>  <label.value>
high

$$$$
>  <compound>
O=C1CC(c2c(Cl)cc(N3CCOCC3)cc2Cl)CC(O)=C1Sc1ccccc1Cl (centres undefined)

>  <target.system>
L-lactate dehydrogenase A chain (Homo sapiens, UniProt P00338)

>  <label.value>
moderate

$$$$
>  <compound>
Cc1occc(=O)c1OCCN1CCN(C(=O)c2ccc(Cl)cc2)CC1

>  <target.system>
L-lactate dehydrogenase A chain (Homo sapiens, UniProt P00338)

>  <label.value>
moderate

$$$$
>  <compound>
O=C1CC(c2c(Cl)ccc(-c3ccccc3Cl)c2Cl)CC(O)=C1Sc1ccccc1Cl (centres undefined)

>  <target.system>
L-lactate dehydrogenase A chain (Homo sapiens, UniProt P00338)

>  <label.value>
low

$$$$
>  <compound>
N#Cc1cccc(C2CC(O)=C(Sc3ccccc3Cl)C(=O)O2)c1 (centres undefined)

>  <target.system>
L-lactate dehydrogenase A chain (Homo sapiens, UniProt P00338)

>  <label.value>
high

$$$$
>  <compound>
Cc1occc(=O)c1OCC(=O)N1CCN(c2cccc(F)c2)CC1

>  <target.system>
L-lactate dehydrogenase A chain (Homo sapiens, UniProt P00338)

>  <label.value>
high

$$$$
>  <compound>
Cc1cccc(C(=O)N2CCN(CCOc3c(C)occc3=O)CC2)c1

>  <target.system>
L-lactate dehydrogenase A chain (Homo sapiens, UniProt P00338)

>  <label.value>
high

$$$$
>  <compound>
O=C1OC(c2cccc(Cl)c2)CC(O)=C1Sc1ccccc1Cl (centres undefined)

>  <target.system>
L-lactate dehydrogenase A chain (Homo sapiens, UniProt P00338)

>  <label.value>
high

$$$$
>  <compound>
Cc1occc(=O)c1OCCN1CCN(C(=O)c2ccco2)CC1

>  <target.system>
L-lactate dehydrogenase A chain (Homo sapiens, UniProt P00338)

>  <label.value>
moderate

$$$$
>  <compound>
CCOC(=O)Cc1ccc(Cl)c(SC2=C(O)CC(c3c(Cl)ccc(-c4ccccc4)c3Cl)CC2=O)c1 (centres undefined)

>  <target.system>
L-lactate dehydrogenase A chain (Homo sapiens, UniProt P00338)

>  <label.value>
low

$$$$
>  <compound>
O=C1CC(c2c(Cl)ccc(N3CCN(C4COC4)CC3)c2Cl)CC(O)=C1Sc1ccccc1Cl (centres undefined)

>  <target.system>
L-lactate dehydrogenase A chain (Homo sapiens, UniProt P00338)

>  <label.value>
moderate

$$$$
>  <compound>
COc1ccc(C#N)c(SC2=C(O)CC(c3c(Cl)ccc(OC(C)C)c3Cl)CC2=O)c1 (centres undefined)

>  <target.system>
L-lactate dehydrogenase A chain (Homo sapiens, UniProt P00338)

>  <label.value>
moderate

$$$$
>  <compound>
CNc1ccc(Cl)c(SC2=C(O)CC(c3c(Cl)cccc3Cl)CC2=O)c1 (centres undefined)

>  <target.system>
L-lactate dehydrogenase A chain (Homo sapiens, UniProt P00338)

>  <label.value>
low

$$$$
